Data credit: a melting point compilation (Tetko et al.; mined from patent text by program, amines drawn as free bases though some values may be those of a salt)

Below, each of the compounds is paired with its reported melting point value.

Example results:
> print(dat)
                               recordsmiles     resulttype    assayresult
1       COc1ccc(-c2cc(=S)n(C)c(=O)n2C)cc1OC  melting point  146 to 148 °C
2  CC(C)CCN1CCC(CNC(=O)c2cc(Cl)c(N)[nH]c2=O)CC1  melting point  131 to 135 °C

# context switch: different compound, same melting point
The reported melting point of the compound `CCOC(=O)c1csc(/C=C/c2cn(-c3ccccc3)nc2OCc2ccc(OCc3nc(-c4ccco4)oc3C)c(OC)c2)n1` was 156 to 157 °C

###

Below, each of the compounds is paired with its reported melting point value.

Example results:
> print(dat)
                               recordsmiles     resulttype    assayresult
1    CCN(C(=O)N(C)C)c1nnc(S(=O)(=O)N(C)C)s1  melting point    75 to 77 °C
2  COCCNC(=O)Cc1ccc2ccn(C3CCN(CCc4ccc(F)cc4)CC3)c2c1  melting point  113 to 114 °C
3  CCCc1c(OCCCCCC(=O)c2ccc(OC)c(OC)c2)ccc(C(=O)OC)c1O  melting point  117 to 119 °C
4  Cc1nc2c(-c3cccc(N4CCN(C)CC4)c3)cnn2c(N)c1-c1ccc(F)c(Cl)c1  melting point  224 to 226 °C

# context switch: different compound, same melting point
The reported melting point of the compound `O=C(CO)NCCCOCCCCOCCCNC(=O)CO` was 67 to 71 °C

###

resultType: melting point (°C)

I = CCCC1CCC(C2(N=C=S)C=CC(CC)=CC2)CC1 (stereo not drawn)
II = CC(=O)Nc1ccc(C#Cc2cnn3c(C(F)(F)F)cc(-c4ccc(C(F)(F)F)cc4)nc23)cn1
Q: In the pair I and II , the larger recorded melting point belongs to which? Answer by stating the label of the chosen item.
A: II

###

Below, each of the compounds is paired with its reported melting point value.

The reported melting point of the compound `CC(C)(S)CNC(=O)c1ccccc1-c1ccccc1C(=O)O` was 150 to 153 °C

The reported melting point of the compound `Cc1cc(-c2ncn3c(C(F)(F)F)cc(-c4ccc(C(F)(F)F)c(C(F)(F)F)c4)nc23)ccn1` was 218 °C

The reported melting point of the compound `CCc1c(F)c(F)c(F)c2c1c(=O)c(C(=O)O)cn2C1CC1` was 197 to 198 °C

The reported melting point of the compound `CCOC(=O)C(C(=O)OCC)C(=O)c1cc(OC)c(OC)c([N+](=O)[O-])c1` was 70 °C

The reported melting point of the compound `c1ccc(OCCSCc2nnc(-c3ccc4[nH]ccc4c3)o2)cc1` was 130 to 132 °C

###

Below, each of the compounds is paired with its reported melting point value.

> print(dat)
                                   compound    assayresult
1  O=C(Nc1ccc2c(c1)nc1n2CCC1)c1cc2cc(C(F)(F)F)cnc2n1Cc1ccccc1  268 to 270 °C
2  CC(=O)NCC1CC1c1c(C2CC2)ccc2nn(C)cc12 (stereo not drawn)  102 to 103 °C

# context switch: different compound, same melting point
The reported melting point of the compound `O=C(O)COc1cccc2c1Cc1sc(S(=O)(=O)CC=Cc3ccccc3)nc1-2` was 212 to 214 °C

###

Below, each of the molecules is paired with its reported melting point value.

Example results:
> print(dat)
                                   molecule     resulttype    assayresult
1  COc1ccc(S(=O)(=O)N(Cc2cccnc2)C(C(N)=O)C(C)C)cc1 (configuration not stated)  melting point    45 to 53 °C
2            CCCc1c(OCC(=O)O)ccc(C(C)=O)c1O  melting point  128 to 130 °C
3  COc1ccc2ccc(C(O)C(F)(F)F)cc2c1 (configuration not stated)  melting point    85 to 87 °C

The reported melting point of the molecule O=C(O)[C@@H]1CSC(c2ccccc2O)N1C(=O)CCS (some centres not stated) was 146 to 148 °C

The reported melting point of the molecule `CCCN(CCC)c1ccc2nc3c4ccccc4c(=Nc4ccncc4)cc-3oc2c1` was 215 to 216 °C

The reported melting point of the molecule `COc1cn(C)c(=O)c(O)n1` was 201 to 204 °C

The reported melting point of the molecule `Cc1cc(C)c2c(c1)CC2=NNC(N)=S` was 230 to 232 °C

###

Below, each of the molecules is paired with its reported melting point value.

Example results:
> print(dat)
                                   molecule    assayresult
1  Cc1cc(C)n(-c2nc(-c3ccc(Cl)cc3)c(CCCOc3ccccc3C)o2)n1  103 to 104 °C
2  CCCC1NS(=O)(=O)N(CCN2CC=C(c3c[nH]c4cc(F)ccc34)CC2)c2ccccc21 (configuration not stated)  196 to 198 °C
3  COc1ccc(Cl)cc1C(=O)N(C)CCc1ccc(CCC(=O)O)cc1  152 to 153 °C

The reported melting point of the molecule O=C1N(C2CCCCC2)CC(CCl)C1(c1ccccc1)c1ccccc1 (configuration not stated) was 124 to 126 °C

The reported melting point of the molecule `CCC(=O)Nc1cccc(-c2ccnc3c(C(=O)c4ccco4)cnn23)c1` was 185 to 186 °C

###

Below, each of the compounds is paired with its reported melting point value.

Example results:
> print(dat)
                                   compound    assayresult
1  CCOC(=O)c1ccc(OCC2CN(c3ccc(S(C)(=O)=O)nn3)CCO2)cc1 (stereo not drawn)         197 °C
2            CCC12CCC(c3ccc(Cl)cc3)(OC1)OC2          78 °C
3           O=S1(=O)NCN(C2CC2)c2ccc(Cl)cc21  159 to 161 °C
4  O=C(Cn1ccnc1)N1CCC(Oc2c(F)c(F)c(F)c(F)c2F)CC1    95 to 96 °C
5  CN1C(C)(C)CC2(CC1(C)C)NC(=O)N(CC(O)COC(=O)CCCCC(=O)OCC(O)CN1C(=O)NC3(CC(C)(C)N(C)C(C)(C)C3)C1=O)C2=O (stereo not drawn)  180 to 184 °C
6  C=CC1=C(C)c2cc3[nH]c(cc4nc(cc5[nH]c(cc1n2)c(C)c5CCC(=O)OCCN(C)C)C(CCC(=O)OCCN(C)C)=C4C)c(C)c3C=C  187 to 191 °C
7                   O=C(Cl)COc1ccc(Cl)cc1Cl    44 to 45 °C
8  CCC(=O)Oc1cc([N+](=O)[O-])cc([N+](=O)[O-])c1OC(=O)CC    72 to 73 °C

The reported melting point of the compound O=[N+]([O-])c1ccc2c(c1)CC(Cl)c1ccccc1S2 (stereo not drawn) was 74 to 77 °C

The reported melting point of the compound `Oc1ccc2nc(-c3ccc(O)c(F)c3)cc(C#Cc3ccccc3)c2c1` was 125 to 129 °C

The reported melting point of the compound `COc1cc(C(C)=O)ccc1OCCCCN1CCN(c2n[nH]c3cc(Cl)ccc23)CC1` was 189 to 191 °C

The reported melting point of the compound `CC(=O)Nc1ccc(Oc2ccc(S(C)(=O)=O)cc2C)cc1` was 169 °C

The reported melting point of the compound COc1ccc2sc3c(c2c1)OC(C)CNC3=O (stereo not drawn) was 185 to 186 °C

###

Below, each of the compounds is paired with its reported melting point value.

> print(dat)
                                   compound    assayresult
1  OC(c1ccc(Oc2ccc(Cl)cc2Cl)cc1)C(F)n1cncn1 (stereo not drawn)  107 to 108 °C
2  COC(=O)C1CSC(c2cc3ccccc3[nH]2)=N1 (stereo not drawn)  141 to 142 °C
3            CC(C)N1CCN(c2cccc(N)c2)C(=O)C1  114 to 115 °C

The reported melting point of the compound COc1ccc2c(c1)C(OC)(c1ccccc1)OC21CCN(Cc2ccccc2)CC1 (stereo not drawn) was 129 to 133 °C

The reported melting point of the compound `Cc1ccc(-c2nc(COc3ccc(CCCn4ccnc4)cc3Cl)co2)s1` was 95 to 96 °C

The reported melting point of the compound CCCCCC(=O)C=Cc1cc(O)c2c(c1)OC(C)(C)C1CC=C(C)CC21 (stereo not drawn) was 119 °C

The reported melting point of the compound `CC(=O)OC[C@H]1CCn2c(cc3ccccc32)C1` was 63 to 64 °C

The reported melting point of the compound `COC1(c2ccc(Sc3ccc4ccccc4c3)s2)CCOCC1` was 70 °C

###

resultType: melting point

> print(dat)
                                    compound      assayresult
 1  CNC(=O)C(Cc1ccc2ccccc2c1)NC(=O)OC(C)(C)C (stereo unspecified)    177 to 179 °C
 2  O=C(Cc1csc(-c2cnccn2)n1)NC1CCN(Cc2ccc(Cl)c(Cl)c2)CC1    186 to 189 °C
 3  NS(=O)(=O)c1ccc(NN=C2C(=O)Nc3ccc(C(=O)NCCO)cc32)cc1         > 230 °C
 4     COc1ccc(C(=O)Nc2ccc3ccc(C=O)nc3n2)cc1           194 °C
 5             CCn1cc(-c2ccccc2)c2ncccc2c1=O           142 °C
 6  CC(C)(O)C1CCC(CNC(=O)c2cccnc2Oc2cccc(C#N)c2)CC1 (stereo unspecified)    129 to 130 °C
 7  O=C(NC1CCCc2sccc21)N1CCOCC1 (stereo unspecified)    152 to 154 °C
 8  CCCCCCCCCCCCOc1cccc2c(OCC(O)CO)cccc12 (stereo unspecified)    143 to 144 °C
 9            COC(=O)c1cccc([N+](=O)[O-])c1C  64.2 to 65.5 °C
10  COc1ccc2c(c1O)NC(=O)C1CCCN1C2=O (stereo unspecified)    275 to 278 °C

# context switch: different compound, same melting point
The reported melting point of the compound `CN(C)S(=O)(=O)Oc1c(I)cc(C(C)(C)C)cc1CN` was 94 to 95 °C
